Assayed system: Endothiapepsin (Cryphonectria parasitica) (UniProt P11838)
Sequence (P11838 whole entry): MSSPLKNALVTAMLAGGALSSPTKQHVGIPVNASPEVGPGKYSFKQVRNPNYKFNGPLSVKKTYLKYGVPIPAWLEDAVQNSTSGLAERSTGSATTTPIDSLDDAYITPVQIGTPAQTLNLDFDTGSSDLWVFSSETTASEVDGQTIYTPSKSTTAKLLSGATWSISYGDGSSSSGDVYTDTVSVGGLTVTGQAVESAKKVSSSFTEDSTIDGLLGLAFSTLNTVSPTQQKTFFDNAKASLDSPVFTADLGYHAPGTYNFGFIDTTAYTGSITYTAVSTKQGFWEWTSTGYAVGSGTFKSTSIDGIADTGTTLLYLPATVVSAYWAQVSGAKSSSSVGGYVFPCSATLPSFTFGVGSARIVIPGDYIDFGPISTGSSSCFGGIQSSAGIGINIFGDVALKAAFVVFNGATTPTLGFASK
Test summary: Inhibition of Cryphonectria parasitica endothiapepsin using Abz-Thr-Ile-Nle-p-nitro-Phe-Gln-Arg-NH2 as substrate at 1 mM by fluorescence spectrophotometry analysis
Metric name: inhibition (%)
One number for each entry, in %.

Count: 4. Required value per item: inhibition.
1. CNCc1ccc(Oc2cccnc2)o1
2. CCN(CC)c1ccc(C(=O)NN)cc1
3. NC1=NCc2ccccc21
4. N=C(N)SCc1ccc(Cl)cc1

Completion:
66
89
89
84

Entry under test: O=C(Cc1cn2ccccc2n1)Nc1ccccc1 . Its inhibition was 84
